Reference source for all entries: patent US3969518A

// inhibition at 20 µM lookup, one value per entry
# SYSTEM_TESTED: xanthine oxidase (Bos taurus)
# Sequence (P80457 whole entry): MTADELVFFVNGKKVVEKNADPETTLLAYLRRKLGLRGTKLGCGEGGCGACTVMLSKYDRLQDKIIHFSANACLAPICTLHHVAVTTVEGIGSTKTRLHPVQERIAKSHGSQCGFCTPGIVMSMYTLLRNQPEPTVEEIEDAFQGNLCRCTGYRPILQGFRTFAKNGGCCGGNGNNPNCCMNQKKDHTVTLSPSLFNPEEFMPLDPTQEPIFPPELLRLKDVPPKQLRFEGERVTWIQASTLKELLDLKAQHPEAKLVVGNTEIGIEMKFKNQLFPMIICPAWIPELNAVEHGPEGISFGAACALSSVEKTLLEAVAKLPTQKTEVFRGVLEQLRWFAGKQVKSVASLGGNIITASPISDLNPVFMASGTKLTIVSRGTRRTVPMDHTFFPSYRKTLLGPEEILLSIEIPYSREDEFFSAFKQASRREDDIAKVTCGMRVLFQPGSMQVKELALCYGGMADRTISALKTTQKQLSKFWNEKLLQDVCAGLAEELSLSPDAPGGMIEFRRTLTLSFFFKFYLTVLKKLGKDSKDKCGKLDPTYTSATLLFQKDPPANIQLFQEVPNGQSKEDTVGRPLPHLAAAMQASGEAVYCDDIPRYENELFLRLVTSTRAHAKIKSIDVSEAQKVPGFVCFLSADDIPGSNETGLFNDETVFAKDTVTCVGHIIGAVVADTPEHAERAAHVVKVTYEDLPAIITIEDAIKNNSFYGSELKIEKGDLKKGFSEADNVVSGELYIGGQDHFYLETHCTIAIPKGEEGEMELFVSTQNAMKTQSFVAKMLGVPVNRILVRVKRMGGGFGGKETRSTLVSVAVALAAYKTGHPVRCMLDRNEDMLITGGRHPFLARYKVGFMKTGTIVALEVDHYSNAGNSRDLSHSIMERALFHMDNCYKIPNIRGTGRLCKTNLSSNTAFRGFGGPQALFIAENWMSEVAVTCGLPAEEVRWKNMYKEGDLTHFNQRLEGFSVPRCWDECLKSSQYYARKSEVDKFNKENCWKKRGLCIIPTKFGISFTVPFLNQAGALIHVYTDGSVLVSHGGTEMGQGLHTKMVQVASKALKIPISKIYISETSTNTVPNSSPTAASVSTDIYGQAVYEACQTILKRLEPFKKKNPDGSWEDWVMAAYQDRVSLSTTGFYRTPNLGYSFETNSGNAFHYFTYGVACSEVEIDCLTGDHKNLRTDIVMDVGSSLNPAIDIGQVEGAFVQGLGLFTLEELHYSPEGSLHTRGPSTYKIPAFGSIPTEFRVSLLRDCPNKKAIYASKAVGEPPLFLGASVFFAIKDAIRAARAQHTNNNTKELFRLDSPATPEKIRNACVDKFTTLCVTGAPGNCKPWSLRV
# ASSAY_PROCEDURE: in vitro xanthine oxidase inhibition (hypoxanthine substrate, absorbance at 292, pH 7.4 buffer; Baker et al procedure)
# Assay type: biochemical
# ASSAY_CONDITIONS: test compound 2 × 10^-5 M, hypoxanthine 6 × 10^-5 M solution, 1 minute
Report only the number, with the unit % understood.

Here are 3 compounds together with their reported answers.
{"columns": ["COMPOUND", "VALUE_UNITS", "inhibition at 20 µM"],
 "data": [
  ["CNS(=O)(=O)c1cc2c(cc1Cl)N=C(CCl)NS2(=O)=O", "%", 78],
  ["CNS(=O)(=O)c1cc2c(cc1Cl)NC(C(Cl)(Cl)Cl)NS2(=O)=O (stereo not shown)", "%", 16],
  ["CCNS(=O)(=O)c1cc2c(cc1Cl)N=C(C(Cl)Cl)NS2(=O)=O", "%", 6]
]}

# lookup: inhibition at 20 µM of `CCN(CC)S(=O)(=O)c1cc2c(cc1Cl)N=C(C(Cl)Cl)NS2(=O)=O` 18

Query (compound): C=CCN(CC=C)S(=O)(=O)c1cc2c(cc1Cl)NC(C(Cl)(Cl)Cl)NS2(=O)=O (stereo not shown) ; field requested: inhibition at 20 µM 6

If you can, please state the reported inhibition at 20 µM value of `CN(C)S(=O)(=O)c1cc2c(cc1Cl)N=C(C(C)(Cl)Cl)NS2(=O)=O` . 13

# inhibition at 20 µM lookup, item `CN(C)S(=O)(=O)c1cc2c(cc1Cl)N=C(C(Cl)(Cl)Cl)NS2(=O)=O` 5

I'd like to know its inhibition at 20 µM. The compound in question is CCNS(=O)(=O)c1cc2c(cc1Cl)NC(C(Cl)(Cl)Cl)NS2(=O)=O (stereo not shown) 63

What inhibition at 20 µM value was documented for this compound, `CCCN(CCC)S(=O)(=O)c1cc2c(c(Cl)c1Cl)N=C(CCl)NS2(=O)=O` ? 33

inhibition at 20 µM for CCCN(CCC)S(=O)(=O)c1cc2c(cc1Cl)NC(C(Cl)(Cl)Cl)NS2(=O)=O (stereo not shown) ? 6
